biological target: HLA-B*44:02 (Homo sapiens, UniProt P01889, A223V/A65T/A93T/A95T/D201E/D98Y/E176V/E187L/E204Q/E69K/G107R/H137Y/K202T/L105A/L119I/N104T/N87E/Q56L/Q94N/R106L/R155S/R180D/S101N/S121R/S35A/S48T/T118I/V36M/W191S/Y140D/Y91S); experiment: MHC binding assay (UV-ligand exchange, beta2m ELISA); conditions: peptide exchange yield
property.name: Peptide exchange

Example results:
| substance | value.reported |
| --- | --- |
| 417 (AEHFSMIRA; listed as Homo sapiens) [compound 417] | “++” (>20% = ++) |
| 433 (SDSQVRAF; listed as Homo sapiens) [compound 433] | “+” (>10% = +) |
| 182 (KEATEAQSL; listed as Homo sapiens) [compound 182] | “+++” (>50 = +++) |
| 399 (RELLHLVTL; listed as Homo sapiens) [compound 399] | “+++” (>50 = +++) |
| 193 (LEAQQEAL; listed as Homo sapiens) [compound 193] | “++” (>20% = ++) |

Lab note: 58 (GEMEQKQL; listed as Homo sapiens) [compound 58] gave Peptide exchange of “++” (>20% = ++)

Lab note: 398 (SFEQVVNELF; listed as Homo sapiens) [compound 398] gave Peptide exchange of “++” (>20% = ++)

Lab note: 214 (VEQTRAGSLL; listed as Homo sapiens) [compound 214] gave Peptide exchange of “++” (>20% = ++)

Lab note: 432 (EEQYIAQF; listed as Homo sapiens) [compound 432] gave Peptide exchange of “+” (>10% = +)

---

molecular target: HLA-B*07:02 (Homo sapiens); assay: MHC binding assay (UV-ligand exchange, beta2m ELISA); conditions: peptide exchange yield
property.name: Peptide exchange

Example results:
| substance | value.reported |
| --- | --- |
| 305 (TPWAESSTKF; listed as Homo sapiens) [compound 305] | “++” (>20% = ++) |
| 119 (APLPRPGAVL; listed as Homo sapiens) [compound 119] | “+++” (>50 = +++) |
| 344 (LPTQTTSSL; listed as Homo sapiens) [compound 344] | “+++” (>50 = +++) |
| 388 (SPAPLKLSRTPA; listed as Homo sapiens) [compound 388] | “++” (>20% = ++) |
| 293 (VPDSGATATAY; listed as Homo sapiens) [compound 293] | “++” (>20% = ++) |
| 334 (FPYSEVTTL; listed as Homo sapiens) [compound 334] | “+++” (>50 = +++) |

Lab note: 357 (SPSPVPTTL; listed as Homo sapiens) [compound 357] gave Peptide exchange of “+++” (>50 = +++)

Lab note: 341 (LPLDTSTTL; listed as Homo sapiens) [compound 341] gave Peptide exchange of “+++” (>50 = +++)
